Where do these numbers come from? They come from patent US20100311782A1.

Target: cloned human κ opioid receptor (Homo sapiens, UniProt P41145)
Construct: expressed in transfected cells
Sequence (P41145 whole entry): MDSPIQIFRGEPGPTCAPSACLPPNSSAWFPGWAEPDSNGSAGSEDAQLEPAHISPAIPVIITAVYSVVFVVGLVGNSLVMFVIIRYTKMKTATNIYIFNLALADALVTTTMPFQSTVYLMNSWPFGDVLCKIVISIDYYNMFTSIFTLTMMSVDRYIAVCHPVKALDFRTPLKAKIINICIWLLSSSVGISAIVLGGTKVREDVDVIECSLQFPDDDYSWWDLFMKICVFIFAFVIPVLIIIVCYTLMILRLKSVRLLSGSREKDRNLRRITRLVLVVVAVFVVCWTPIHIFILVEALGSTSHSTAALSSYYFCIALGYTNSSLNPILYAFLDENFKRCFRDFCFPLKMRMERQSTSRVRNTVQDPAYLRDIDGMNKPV
Experiment: Receptor binding, [3H]diprenorphine displacement, kappa opioid receptor
Settings: [3H]diprenorphine, cloned human kappa opioid receptor; read-out: KOR Ki
Where a name gives a salt, the structure may show the parent alone.
Property: Ki (nM)

| Compound | Property | Result Unit | Inequality Operator | Val |
| --- | --- | --- | --- | --- |
| C[C@H]1CN(C[C@H](Cc2ccccc2)C(=O)O)CC[C@@]1(C)c1cccc(C(=O)O)c1 [Example C-1, reference compound] | Ki | nM | > | 10000 |
| C[C@H]1CN(C[C@@H](Cc2ccccc2)C(=O)NCC(=O)O)CC[C@@]1(C)c1cccc(C(N)=O)c1.O=C(O)C(F)(F)F [Example C-2, reference compound] | Ki | nM | = | 660 |
| CC1CN(CC(Cc2ccccc2)C(=O)NCC(=O)O)CCC1(C)c1cccc(C(N)=O)c1 (stereo not drawn) [Example C-3, sodium salt, reference compound] | Ki | nM | = | 930 |

###

Molecular target: cloned human δ opioid receptor (Homo sapiens, UniProt P41143)
Construct: expressed in transfected cells
Sequence (P41143 whole entry): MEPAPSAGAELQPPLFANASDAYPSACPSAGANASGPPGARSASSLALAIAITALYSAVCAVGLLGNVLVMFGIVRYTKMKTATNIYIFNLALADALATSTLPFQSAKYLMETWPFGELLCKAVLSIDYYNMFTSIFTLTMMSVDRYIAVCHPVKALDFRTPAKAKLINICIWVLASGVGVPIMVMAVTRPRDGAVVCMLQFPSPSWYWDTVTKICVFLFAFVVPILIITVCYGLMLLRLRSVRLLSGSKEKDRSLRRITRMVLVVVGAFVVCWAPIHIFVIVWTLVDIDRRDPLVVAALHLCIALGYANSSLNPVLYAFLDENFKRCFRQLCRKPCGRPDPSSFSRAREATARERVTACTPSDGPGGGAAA
Assay: Receptor binding, [3H]diprenorphine displacement, delta opioid receptor
Conditions: read-out: DOR Ki
pKi: −log10 of the molar value.
pKi values by entry
Property: pKi

| Compound | Inequality Operator | Val |
| --- | --- | --- |
| C[C@H]1CN(C[C@@H](Cc2ccccc2)C(=O)NCC(=O)O)CC[C@@]1(C)c1cccc(C(N)=O)c1.O=C(O)C(F)(F)F [Example C-2, reference compound] | = | 7.07 |
| C[C@H]1CN(C[C@H](Cc2ccccc2)C(=O)O)CC[C@@]1(C)c1cccc(C(=O)O)c1 [Example C-1, reference compound] | < | 5.00 |
